Value source: patent US6989451B2

experimental target: GST-hMEK1 and mERK2 (Homo sapiens)
Sequence (P63085 2-358): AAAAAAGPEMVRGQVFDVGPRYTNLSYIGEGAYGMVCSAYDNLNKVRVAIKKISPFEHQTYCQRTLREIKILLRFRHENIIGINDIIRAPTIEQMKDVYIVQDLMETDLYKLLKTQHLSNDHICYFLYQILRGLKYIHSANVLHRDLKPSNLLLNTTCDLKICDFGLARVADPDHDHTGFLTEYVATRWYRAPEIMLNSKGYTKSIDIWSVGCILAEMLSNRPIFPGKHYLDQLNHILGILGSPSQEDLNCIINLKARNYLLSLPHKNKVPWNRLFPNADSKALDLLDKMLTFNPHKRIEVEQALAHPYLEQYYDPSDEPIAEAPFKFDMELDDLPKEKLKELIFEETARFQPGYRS
Sequence (Q02750 whole entry): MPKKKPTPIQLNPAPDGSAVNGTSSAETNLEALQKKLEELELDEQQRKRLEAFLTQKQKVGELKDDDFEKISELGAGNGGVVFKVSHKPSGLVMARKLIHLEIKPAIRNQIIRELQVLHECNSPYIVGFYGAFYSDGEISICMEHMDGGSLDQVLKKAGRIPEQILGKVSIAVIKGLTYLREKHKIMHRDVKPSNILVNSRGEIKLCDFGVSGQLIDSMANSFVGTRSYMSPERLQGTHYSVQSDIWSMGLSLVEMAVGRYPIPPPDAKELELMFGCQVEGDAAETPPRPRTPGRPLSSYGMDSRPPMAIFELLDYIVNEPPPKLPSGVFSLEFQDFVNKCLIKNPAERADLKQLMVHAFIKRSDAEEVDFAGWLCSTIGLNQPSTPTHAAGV
measured property: IC50

molecule=N#Cc1c(O)nsc1Nc1ccc(Cl)cc1 measured_property=IC50 measurement="10 to 100 µM"
molecule=Cc1cccc(Nc2s[nH]c(=O)c2C#N)c1 measured_property=IC50 measurement="10 to 100 µM"
molecule="N#Cc1c(O)nsc1NCC1CCCO1 (stereo not drawn)" measured_property=IC50 measurement="< 10 µM"
